assay_details: Toxicity liver stage against HepG2, at 10uM
Format: cell-based
Design: test concentration 10 uM, cell line HepG2-A16-CD81EGFP
run_conditions: human, HepG2-A16-CD81EGFP cells; read-out: INHIBITION
outcome_measure: cytotoxicity at 10 µM (%)
Give the value in % but do not write % after it.

Supply cytotoxicity at 10 µM value. Item: CC(NC(=O)NCC1(c2ccc(F)cc2)CCC1)c1nncn1C (stereo not given)
-3.59

Supply cytotoxicity at 10 µM value. Item: c1cnc(N2CCO[C@@H]3CN(Cc4ccoc4)C[C@@H]3C2)nc1
-1.36

Supply cytotoxicity at 10 µM value. Item: CS(=O)(=O)N1CCCC12CCCN(C(=O)c1cc(F)cc(F)c1)C2 (stereo not given)
-140

Supply cytotoxicity at 10 µM value. Item: Cc1cc(-c2cnc(N3CCCC3)nc2-c2ccc(C)s2)on1
-0.279

Supply cytotoxicity at 10 µM value. Item: CN(C)S(=O)(=O)c1ccc(F)c(NC(=O)COCC2CC2)c1
3.71

Supply cytotoxicity at 10 µM value. Item: CN1C(=O)CC2(CCNCC2)c2ccccc21
-3.92

Supply cytotoxicity at 10 µM value. Item: CCN1CC2(CCN(C(=O)c3nc4cc(C)ccn4c3F)CC2)CC1=O
12.3

Supply cytotoxicity at 10 µM value. Item: CC(C)Nc1ncnc2c1CCN(C(=O)c1ccc[nH]1)CC2
-77.6

Supply cytotoxicity at 10 µM value. Item: CN(C)C(=O)CN1CCC2(CC1)COC2
5.53

Supply cytotoxicity at 10 µM value. Item: CCN1C[C@H]2[C@@H](C1)N(S(=O)(=O)c1cccnc1)CC[C@H]2OC
-1.78

Supply cytotoxicity at 10 µM value. Item: COc1cc(CNC2CCc3nc(C(C)C)nn3C2)cc2c1OCO2 (stereo not given)
-5.82

Supply cytotoxicity at 10 µM value. Item: Cc1cnn(CC2CN(CC(=O)N(C)Cc3ccccc3)CCO2)c1 (stereo not given)
-4.35

Supply cytotoxicity at 10 µM value. Item: COCc1nccc(C2CCCN(Cc3ccc(C#N)cc3F)C2)n1 (stereo not given)
27.3

Supply cytotoxicity at 10 µM value. Item: O=C(CCc1ccco1)N1CCC(Nc2cccnn2)CC1
-20.3

Supply cytotoxicity at 10 µM value. Item: COc1cccc([C@@H]2CCN(Cc3cccc(C)n3)C[C@H]2O)c1
2.22

* * *

In this section we review reported cytotoxicity at 10 µM values for a set of compounds.
assay_details: Toxicity liver stage against HepG2, at 10uM
Type: cell-based
Set-up: test concentration 10 uM, cell line HepG2-A16-CD81EGFP
run_conditions: human, HepG2-A16-CD81EGFP cells; read-out: INHIBITION
Give the value in % but do not write % after it.

Supply cytotoxicity at 10 µM value. Item: COCCOc1ccnc(-c2noc([C@@H]3CCCN3C3CCC3)n2)c1
-8.46

Supply cytotoxicity at 10 µM value. Item: COc1ccc(NC(=O)NCC(C)N2CCc3ccccc32)cc1 (stereo not given)
-2.42

Supply cytotoxicity at 10 µM value. Item: O=C(Nc1cnc(C2CC2)nc1)N1CCC(CN2CCCC2)C1 (stereo not given)
18.8

Supply cytotoxicity at 10 µM value. Item: Cc1cccc(C(C(=O)NCc2cc(C)[nH]n2)N(C)C)c1 (stereo not given)
-3.07

Supply cytotoxicity at 10 µM value. Item: CN1CCN(Cc2c(Cl)ccc(O)c2Cl)CC1C(=O)O (stereo not given)
9.46

Next:
Supply cytotoxicity at 10 µM value. Item: Cc1nc(NC(=O)CN2CCc3c(nc(C(C)C)n3C)C2)sc1C
-9.52

Supply cytotoxicity at 10 µM value. Item: Cc1nc2ccc(Cl)cn2c1CN1CCN(S(=O)(=O)N2CCCC2)CC1
16.6

Supply cytotoxicity at 10 µM value. Item: COc1ccc(CN2CCO[C@H]3CN(C(C)=O)CC[C@H]3C2=O)cc1
-138

Supply cytotoxicity at 10 µM value. Item: Cc1ccc(-c2nc(C(=O)N3CCN(C(=O)N(C)C)CC3)cs2)c(C)c1
-7.98

Supply cytotoxicity at 10 µM value. Item: CCN1Cc2ccccc2CC2(CCN(CC(=O)O)CC2)C1=O
-4.87

Supply cytotoxicity at 10 µM value. Item: CCCn1cnc2c1CN(S(=O)(=O)c1ccc(F)cc1)[C@H](C(=O)OC)C2
1.2

Supply cytotoxicity at 10 µM value. Item: Cc1cnn(C2CCCN(C(=O)CCNS(C)(=O)=O)C2)c1 (stereo not given)
-28.6

Supply cytotoxicity at 10 µM value. Item: Cc1cnn(C2CCCN(C(=O)Cc3n[nH]c4ccccc34)C2)c1 (stereo not given)
-6.8

Supply cytotoxicity at 10 µM value. Item: CCCC(=O)N1CCCC(C(=O)c2cnn(-c3ccc(F)cc3)c2N)C1 (stereo not given)
4.67

Supply cytotoxicity at 10 µM value. Item: Cc1ccc2cc(C3(O)CCN(C(=O)[C@@H]4CCCCN4)CC3)ccc2n1
-0.456

* * *

In this section we review reported cytotoxicity at 10 µM values for a set of molecules.
assay_details: Toxicity liver stage against HepG2, at 10uM
Assay type: cell-based
Parameters: test concentration 10 uM, cell line HepG2-A16-CD81EGFP
run_conditions: human, HepG2-A16-CD81EGFP cells; read-out: INHIBITION

Use these answered entries as a reference point.
Supply cytotoxicity at 10 µM value. Item: c1csc(N2CCN(c3ncnc4sccc34)CC2)n1
34.6%

Supply cytotoxicity at 10 µM value. Item: COc1ccc(C)c(NC(=O)NCc2cccc(N(C)C)n2)c1
6.13%

Supply cytotoxicity at 10 µM value. Item: Cc1nccn1CC1CCN(C(=O)Cc2ccccc2)CC1
-17%

Supply cytotoxicity at 10 µM value. Item: CC(Cn1ccnc1)NC(=O)NCCN1CCc2ccccc2C1 (stereo not given)
7.65%

Supply cytotoxicity at 10 µM value. Item: Cc1csc(N2CCCN(C(=O)c3nccnc3N)CC2)n1
-2.42%

Supply cytotoxicity at 10 µM value. Item: COc1ccnc(N2CCN(Cc3nc(-c4ccoc4)no3)CC2)c1
-10.9%

Next:
Supply cytotoxicity at 10 µM value. Item: O=C(CS(=O)(=O)c1ncccc1Cl)NC1CCCc2ccccc21 (stereo not given)
-7.69%

Supply cytotoxicity at 10 µM value. Item: Cc1cc(C2CCCN(CCCNS(C)(=O)=O)C2)n[nH]1 (stereo not given)
-5.2%

Supply cytotoxicity at 10 µM value. Item: Cn1cc(CN2CCCN(C(=O)c3cn4ccccc4n3)CC2)cn1
-5.97%

Supply cytotoxicity at 10 µM value. Item: Cc1nc(C)n(CC2CN(Cc3nc4ccccc4n3C)CCO2)n1 (stereo not given)
-4.68%

* * *

assay_details: Toxicity liver stage against HepG2, at 10uM
Assay type: cell-based
Design: test concentration 10 uM, cell line HepG2-A16-CD81EGFP
run_conditions: human, HepG2-A16-CD81EGFP cells; read-out: INHIBITION
Outcome: Yes for cytotoxicity at 10 µM of at least -10%; No for anything lower.

State whether the measured cytotoxicity at 10 µM reaches -10%, counting equality as reaching it, for Cc1cccc(C)c1CN1C(=O)CC2(CCSC2)C1=O (centres undefined)
Yes

State whether the measured cytotoxicity at 10 µM reaches -10%, counting equality as reaching it, for CCN1CCCC1CNC(=O)c1cc(COc2ccccc2F)[nH]n1 (centres undefined)
Yes

State whether the measured cytotoxicity at 10 µM reaches -10%, counting equality as reaching it, for CCc1csc(CNC2CCN(c3ccc(C)cc3)CC2)n1
No

State whether the measured cytotoxicity at 10 µM reaches -10%, counting equality as reaching it, for Cc1ncsc1CN1C[C@@H]2COC[C@]2(C(=O)NCc2cccnc2)C1
No

State whether the measured cytotoxicity at 10 µM reaches -10%, counting equality as reaching it, for CCN(C(=O)C1Cc2cc(Cl)ccc2O1)C1CC1 (centres undefined)
Yes

Next:
State whether the measured cytotoxicity at 10 µM reaches -10%, counting equality as reaching it, for COCCN1CCC(Nc2c(F)cc(C#N)cc2F)CC1
Yes

State whether the measured cytotoxicity at 10 µM reaches -10%, counting equality as reaching it, for c1cncc(OCCCNC2COc3ccccc3C2)c1 (centres undefined)
Yes

State whether the measured cytotoxicity at 10 µM reaches -10%, counting equality as reaching it, for CCCc1nc(CNc2nc(C)nc3oc(C)nc23)cs1
No

State whether the measured cytotoxicity at 10 µM reaches -10%, counting equality as reaching it, for Cc1cccc(C(=O)N2C[C@@H]3COC[C@@H](CC(=O)N4CCCC4)[C@@H]3C2)n1
No

State whether the measured cytotoxicity at 10 µM reaches -10%, counting equality as reaching it, for Cc1cnn(CCCN2C(=O)CCc3ccccc32)c1
Yes

* * *

assay_details: Toxicity liver stage against HepG2, at 10uM
Type: cell-based
Design: test concentration 10 uM, cell line HepG2-A16-CD81EGFP
run_conditions: human, HepG2-A16-CD81EGFP cells; read-out: INHIBITION
In this section we review reported cytotoxicity at 10 µM values for a set of molecules.
Give the value in % but do not write % after it.

Use these answered entries as a reference point.
Supply cytotoxicity at 10 µM value. Item: CCC[C@@H]1CN(Cc2ccccc2OC(F)(F)F)C[C@H]1NC(C)=O
5.5

Supply cytotoxicity at 10 µM value. Item: Cc1cncc(C(=O)N2CCC3(CCCN(c4nncs4)C3)C2)c1 (stereo not given)
-99.4

Supply cytotoxicity at 10 µM value. Item: Cc1ccc(C)c(CC(=O)Nc2cnccc2SCCCO)c1
21.2

Supply cytotoxicity at 10 µM value. Item: CCN(CCCc1ccccc1C)S(C)(=O)=O
2.86

Supply cytotoxicity at 10 µM value. Item: Cc1nc(-c2cc(C(=O)NCC(C)(C)CO)c3ccccn23)cs1
6.1

Next:
Supply cytotoxicity at 10 µM value. Item: CC(C)c1nnc(CN2CCC3(CC2)Nc2ccccc2NC3=O)o1
-1.48

Supply cytotoxicity at 10 µM value. Item: COc1cc(CNc2ccccc2Cl)ccc1OCC(=O)O
6.15

Supply cytotoxicity at 10 µM value. Item: COc1ccnc(NCc2ccccc2Cn2cccn2)n1
-0.81

Supply cytotoxicity at 10 µM value. Item: Cc1nc(Nc2ncccn2)cc(C2CCCN2C2CCOCC2)n1 (stereo not given)
-4.45

meta.source: ChEMBL document CHEMBL4513216
